- tested.target: recombinant human ICAM1 (human, UniProt P05362 28-480, limits assumed)
- Sequence (P05362 28-480 limits assumed): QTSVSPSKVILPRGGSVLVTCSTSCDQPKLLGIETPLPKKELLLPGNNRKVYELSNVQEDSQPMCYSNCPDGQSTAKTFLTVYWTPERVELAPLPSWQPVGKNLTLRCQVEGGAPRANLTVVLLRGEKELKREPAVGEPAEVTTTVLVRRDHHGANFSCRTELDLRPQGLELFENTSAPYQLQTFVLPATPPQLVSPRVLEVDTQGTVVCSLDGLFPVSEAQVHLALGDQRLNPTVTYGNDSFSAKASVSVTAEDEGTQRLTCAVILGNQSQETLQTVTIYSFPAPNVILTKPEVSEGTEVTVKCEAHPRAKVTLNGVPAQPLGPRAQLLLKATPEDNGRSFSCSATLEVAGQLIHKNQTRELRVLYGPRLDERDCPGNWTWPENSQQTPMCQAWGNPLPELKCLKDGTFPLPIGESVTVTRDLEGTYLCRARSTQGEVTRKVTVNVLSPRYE
- assay.text: SPR (Biacore 8K), antibody captured, antigen injected
observation.type: kon (M⁻¹ s⁻¹)

>  <binder>
8E5 (antibody, human IgG1, kappa, V domains shown, Rabbit-human chimeric anti-ICAM1: rabbit VH and VL on human IgG1 and kappa constant regions) VH: QSLEESGGRLVTPGTPLTLTCTVSGFSLSNYAMNWVRQAPGKGLEWIGYISTRGSAYYASWAKGRFTISKTSTTVDLKMTSPTTEDTATYFCARGDLVGGGYIRGSFDPWGPGTLVTVSS VL: AQVLTQTPSPVSAAVGGTVTINCQSSQSVVSDKLLSWFQQKPGQPPKLLIYGASTLASGVPSRFKGSGSGTQFTLTISDVQSDDAATYYCAGAYSTDSDIRAFGGGTEVVVKR

>  <observation.type>
kon

>  <unit.descriptor>
M⁻¹ s⁻¹

>  <reported.measurement>
148000

$$$$
>  <binder>
15D10 (antibody, human IgG1, kappa, V domains shown, Rabbit-human chimeric anti-ICAM1: rabbit VH and VL on human IgG1 and kappa constant regions) VH: QSVEESGGRLVTPGTPLTLTCTASGFSLNNYYMSWVRQAPGKGLEWIGIISDSDNTYYASWAKGRFTISKTSTTVDLKITSPTTEDTATYFCARDWSLDSSSGYYYYDMDLWGPGTLVTVSA VL: AYDMTQTPASMEVAVGGTVTIKCQASQNIHSWLAWFQQKPGQPPKRLIYKASTLASGVPSRFKGSGSGTQFTLTISGVQSDDAATYYCQQGYSRSDGEHVFGGGTEVVVKR

>  <observation.type>
kon

>  <unit.descriptor>
M⁻¹ s⁻¹

>  <reported.measurement>
85500

$$$$
>  <binder>
10B8 (antibody, human IgG1, kappa, V domains shown, Rabbit-human chimeric anti-ICAM1: rabbit VH and VL on human IgG1 and kappa constant regions) VH: QSLEESGGRLVTPGGSLTLTCTVSGFSLSSYGMSWVRQAPGKGLEYIGWISFSGSAYYANWAKGRFTISKTSTTVDLKITSPTTEDTATYFCARGGDYGGSTYILNLWGPGTLVTVSS VL: AFELTQTPSSVEAAVGGTVTIKCQASESINSYLSWYQQKPGQPPKLLIYAASTLASGVSSRFKGSGSGTEFTLTISDLESADAATYYCQSYSGTISTSGGAFGGGTEVVVKR

>  <observation.type>
kon

>  <unit.descriptor>
M⁻¹ s⁻¹

>  <reported.measurement>
206000

$$$$
